Assignment: determine reported IC50 for the given compounds.
# systemUnderTest: human Werner helicase (WRN-BV08, Uniprot Q14191, amino acids 517-1235 with L1074F point mutation) (Homo sapiens, UniProt Q14191, L1074F)
# Construct: Uniprot Q14191, amino acids 517-1235 with L1074F point mutation; TEV-cleavable 8×His (C, cleaved yes); made in house; host or cells: Sf9 insect cells (baculovirus)
# Sequence (Q14191 with tags, fused parts or gaps L1074F limits assumed): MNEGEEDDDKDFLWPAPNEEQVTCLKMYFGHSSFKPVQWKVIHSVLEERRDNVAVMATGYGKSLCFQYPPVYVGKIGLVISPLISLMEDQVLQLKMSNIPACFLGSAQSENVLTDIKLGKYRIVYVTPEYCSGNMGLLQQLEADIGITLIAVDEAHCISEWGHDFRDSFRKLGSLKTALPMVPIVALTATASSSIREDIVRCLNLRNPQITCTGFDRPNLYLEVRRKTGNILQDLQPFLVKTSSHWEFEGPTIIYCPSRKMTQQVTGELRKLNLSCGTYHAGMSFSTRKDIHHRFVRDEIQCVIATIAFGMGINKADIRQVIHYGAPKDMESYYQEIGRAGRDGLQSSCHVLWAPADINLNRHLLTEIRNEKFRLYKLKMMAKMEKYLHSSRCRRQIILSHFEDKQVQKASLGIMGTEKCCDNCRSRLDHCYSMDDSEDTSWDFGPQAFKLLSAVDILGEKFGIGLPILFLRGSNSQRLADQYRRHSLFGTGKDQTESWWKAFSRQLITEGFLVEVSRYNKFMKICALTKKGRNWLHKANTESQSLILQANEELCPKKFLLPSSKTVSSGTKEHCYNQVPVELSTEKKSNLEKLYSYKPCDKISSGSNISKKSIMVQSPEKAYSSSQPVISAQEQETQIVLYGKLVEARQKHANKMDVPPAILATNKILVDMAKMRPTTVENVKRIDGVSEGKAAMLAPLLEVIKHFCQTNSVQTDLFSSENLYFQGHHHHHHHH
# assayProcedure: WRN (BV08) ADP-Glo Assay
# Type: biochemical
# studyConditions: 0.15 nM WRN, 5 μM ATP, 0.1 nM DNA duplex, 15 min preincubation, 60 min at 25° C., pH 7.5, 1% DMSO; read-out: ADP-Glo_hWRN_IC50

Prompt: Note IC50 for the compound shown: O=C(Cn1cc(-c2ccccc2)cn1)N(Cc1ccncc1)C1C=CS(=O)(=O)C1 (single isomer, unassigned) [I-281]
Response: 10 to 50 µM

Prompt: Note IC50 for the compound shown: O=C(Cc1ccc(S(F)(F)(F)(F)F)cc1)N(CCc1nccs1)C1C=CS(=O)(=O)C1 (stereo not drawn) [I-679]
Response: 0.5 to 5 µM

Prompt: Note IC50 for the compound shown: COc1cc(CN(C(=O)Cc2c(F)cc(-n3cccc3C)cc2F)C2C=CS(=O)(=O)C2)ccn1 (stereo not drawn) [I-241]
Response: 5 to 10 µM

Prompt: Note IC50 for the compound shown: O=C(Cc1ncc(-c2ccc(F)c(F)c2)cc1F)N(Cc1ccnc(OC(F)F)c1)C1C=CS(=O)(=O)C1 (stereo not drawn) [I-698]
Response: 0.5 to 5 µM

Prompt: Note IC50 for the compound shown: N#Cc1csc(CN(C(=O)Cc2ccc(-n3cccc3)cc2)C2C=CS(=O)(=O)C2)n1 (stereo not drawn) [I-190]
Response: 0.5 to 5 µM

Prompt: Note IC50 for the compound shown: CC(C)(O)c1cc(CN(C(=O)Cn2nc(-c3cc(F)c(F)c(F)c3)cc2N)C2C=CS(=O)(=O)C2)ccn1 (single isomer, unassigned) [I-821]
Response: 0.5 to 5 µM

###

# systemUnderTest: human Werner helicase (WRN-BV08, Uniprot Q14191, amino acids 517-1235 with L1074F point mutation) (Homo sapiens, UniProt Q14191, L1074F)
# Construct: Uniprot Q14191, amino acids 517-1235 with L1074F point mutation; TEV-cleavable 8×His (C, cleaved yes); made in house; host or cells: Sf9 insect cells (baculovirus)
# assayProcedure: WRN (BV08) ADP-Glo Assay
# Format: biochemical
# studyConditions: 0.15 nM WRN, 5 μM ATP, 0.1 nM DNA duplex, 15 min preincubation, 60 min at 25° C., pH 7.5, 1% DMSO; read-out: ADP-Glo_hWRN_IC50
measure: IC50

Prompt: Note IC50 for the molecule shown: O=C(c1c[nH]c2cc(-c3ccc(F)cc3)ccc12)N(Cc1ccncc1)C1C=CS(=O)(=O)C1 (stereo not drawn) [I-423]
Response: > 50 µM

Prompt: Note IC50 for the molecule shown: COc1cc(CN(C(=O)C(c2ccc(-c3ccc(F)c(F)c3)cc2F)n2cccn2)[C@@H]2C=CS(=O)(=O)C2)ccn1 (single isomer, unassigned) [I-672]
Response: 5 to 10 µM

Prompt: Note IC50 for the molecule shown: O=C(C1C2CCC1C2)N(Cc1ccncc1)C1C=CS(=O)(=O)C1 (stereo not drawn) [I-619]
Response: > 50 µM

Prompt: Note IC50 for the molecule shown: COc1ccc2c(c1)CC(C(=O)N(Cc1ccncc1)C1C=CS(=O)(=O)C1)CO2 (stereo not drawn) [I-756]
Response: > 50 µM

Prompt: Note IC50 for the molecule shown: O=C(Cc1ccc(OC2CCC2)cc1)N(Cc1ccncc1)C1C=CS(=O)(=O)C1 (stereo not drawn) [I-463]
Response: > 50 µM

Prompt: Note IC50 for the molecule shown: COc1cc(CN(C(=O)C(OCC2CN(S(C)(=O)=O)C2)c2ccc(-c3ccc(F)c(F)c3)cc2F)[C@@H]2C=CS(=O)(=O)C2)ccn1 (stereo partly drawn) [I-810]
Response: 0.5 to 5 µM

###

# systemUnderTest: human Werner helicase (WRN-BV08, Uniprot Q14191, amino acids 517-1235 with L1074F point mutation) (Homo sapiens, UniProt Q14191, L1074F)
# Construct: Uniprot Q14191, amino acids 517-1235 with L1074F point mutation; TEV-cleavable 8×His (C, cleaved yes); made in house; host or cells: Sf9 insect cells (baculovirus)
# assayProcedure: WRN (BV08) ADP-Glo Assay
# Assay type: biochemical
# studyConditions: 0.15 nM WRN, 5 μM ATP, 0.1 nM DNA duplex, 15 min preincubation, 60 min at 25° C., pH 7.5, 1% DMSO; read-out: ADP-Glo_hWRN_IC50
Assignment: determine reported IC50 for the given molecules.

Prompt: Note IC50 for the molecule shown: COc1cc(CN(C(=O)C(OC)c2ccc(-c3ccc(F)cc3)cc2F)C2C=CS(=O)(=O)C2)ccn1 (single isomer, unassigned) [I-405]
Response: > 50 µM

Prompt: Note IC50 for the molecule shown: O=C(Cn1ncc2ccc(C(F)F)cc21)N(Cc1ccncc1)C1C=CS(=O)(=O)C1 (stereo not shown) [I-593]
Response: > 50 µM

Prompt: Note IC50 for the molecule shown: COc1cc(CN(C(=O)C(c2ccc(-c3ccc(F)c(F)c3)cc2F)n2cc(C(F)F)cn2)[C@@H]2C=CS(=O)(=O)C2)ccn1 (single isomer, unassigned) [I-701]
Response: < 0.5 µM

Prompt: Note IC50 for the molecule shown: CN(C)C(=O)C(C(=O)N(Cc1ccncc1)C1C=CS(=O)(=O)C1)c1ccc(-c2ccc(F)cc2)cc1 (single isomer, unassigned) [I-375]
Response: > 50 µM

###

# systemUnderTest: human Werner helicase (WRN-BV08, Uniprot Q14191, amino acids 517-1235 with L1074F point mutation) (Homo sapiens, UniProt Q14191, L1074F)
# Construct: Uniprot Q14191, amino acids 517-1235 with L1074F point mutation; TEV-cleavable 8×His (C, cleaved yes); made in house; host or cells: Sf9 insect cells (baculovirus)
# assayProcedure: WRN (BV08) ADP-Glo Assay
# Assay type: biochemical
# studyConditions: 0.15 nM WRN, 5 μM ATP, 0.1 nM DNA duplex, 15 min preincubation, 60 min at 25° C., pH 7.5, 1% DMSO; read-out: ADP-Glo_hWRN_IC50
pIC50: −log10 of the molar value.
Assignment: determine reported pIC50 for the given molecules.

Prompt: Note pIC50 for the molecule shown: O=C(Cc1ccc(-n2cccc2)cc1)N(Cc1cccc2[nH]ccc12)C1C=CS(=O)(=O)C1 (centres unmarked) [I-497]
Response: < 4.30

Prompt: Note pIC50 for the molecule shown: COC(C(=O)N(Cc1ccnc(C(C)(C)O)c1)C1C=CS(=O)(=O)C1)c1ccc(-c2ccc(F)cc2)cc1F (centres unmarked) [I-28]
Response: > 6.30

Prompt: Note pIC50 for the molecule shown: O=C([C@H]1[C@@H]2CCC[C@@H]21)N(Cc1ccncc1)C1C=CS(=O)(=O)C1 (some centres unmarked) [I-583]
Response: < 4.30

Prompt: Note pIC50 for the molecule shown: O=C(Cc1ccc(-c2ccc(F)c(F)c2)cc1)N(Cc1ccncc1)C1C=CS(=O)(=O)C1 (centres unmarked) [I-143]
Response: 5.30 to 6.30

Prompt: Note pIC50 for the molecule shown: CCN(C)C(=O)C(C(=O)N(Cc1ccnc(C(C)(C)O)c1)C1C=CS(=O)(=O)C1)c1ccc(-c2ccc(F)c(F)c2)cc1F (centres unmarked) [I-75]
Response: > 6.30

###

# systemUnderTest: human Werner helicase (WRN-BV08, Uniprot Q14191, amino acids 517-1235 with L1074F point mutation) (Homo sapiens, UniProt Q14191, L1074F)
# Construct: Uniprot Q14191, amino acids 517-1235 with L1074F point mutation; TEV-cleavable 8×His (C, cleaved yes); made in house; host or cells: Sf9 insect cells (baculovirus)
# assayProcedure: WRN (BV08) ADP-Glo Assay
# Assay type: biochemical
# studyConditions: 0.15 nM WRN, 5 μM ATP, 0.1 nM DNA duplex, 15 min preincubation, 60 min at 25° C., pH 7.5, 1% DMSO; read-out: ADP-Glo_hWRN_IC50
pIC50: −log10 of the molar value.
measure: pIC50

Prompt: Note pIC50 for the compound shown: CC(=O)N(C)C(C(=O)N(Cc1ccncc1)C1C=CS(=O)(=O)C1)c1ccc(-n2cccc2)cc1 (stereo not drawn)
Response: < 4.30

Prompt: Note pIC50 for the compound shown: COc1cc(CN(C(=O)Cn2cc(-c3ccccc3)c(C)n2)[C@@H]2C=CS(=O)(=O)C2)ccn1
Response: 4.30 to 5.00

Prompt: Note pIC50 for the compound shown: Cc1cccn1-c1ccc(CC(=O)N(Cc2nc3ccccc3s2)C2C=CS(=O)(=O)C2)c(F)c1 (stereo not drawn)
Response: > 6.30

Prompt: Note pIC50 for the compound shown: O=C(Cc1cccc2ccccc12)N(Cc1ccncc1)C1C=CS(=O)(=O)C1 (stereo not drawn)
Response: < 4.30

Prompt: Note pIC50 for the compound shown: O=C(Cc1cc2ccccc2s1)N(Cc1ccncc1)C1C=CS(=O)(=O)C1 (stereo not drawn)
Response: 4.30 to 5.00

Prompt: Note pIC50 for the compound shown: O=C(Cc1ccc(-c2ccc(F)cc2F)cc1)N(Cc1ccncc1)C1C=CS(=O)(=O)C1 (stereo not drawn)
Response: 5.30 to 6.30

Prompt: Note pIC50 for the compound shown: C#CCCCC(=O)N1CCN(c2ccc(CN(C(=O)Cc3ccc(-n4cccc4)cc3)C3C=CS(=O)(=O)C3)cc2)CC1 (stereo not drawn)
Response: 5.30 to 6.30

Prompt: Note pIC50 for the compound shown: COc1cc(CN(C(=O)Cc2ccc(-c3ccc(F)cc3O)nc2)C2C=CS(=O)(=O)C2)ccn1 (single isomer, unassigned) [I-353]
Response: 4.30 to 5.00

Prompt: Note pIC50 for the compound shown: COCCOC(C(=O)N(Cc1ccnc(C(C)(C)O)c1)[C@@H]1C=CS(=O)(=O)C1)c1ccc(-c2ccc(F)c(F)c2)cc1F (stereo partly drawn)
Response: > 6.30
